The reported numbers originate from patent US20250326840A1.

target.of.assay: T1, QP273 (cynoSIRPα2-flag-his T-557-14) (cynomolgus)
T1 construct: also called cynomolgus SIRPα (QP273)
T1 chain: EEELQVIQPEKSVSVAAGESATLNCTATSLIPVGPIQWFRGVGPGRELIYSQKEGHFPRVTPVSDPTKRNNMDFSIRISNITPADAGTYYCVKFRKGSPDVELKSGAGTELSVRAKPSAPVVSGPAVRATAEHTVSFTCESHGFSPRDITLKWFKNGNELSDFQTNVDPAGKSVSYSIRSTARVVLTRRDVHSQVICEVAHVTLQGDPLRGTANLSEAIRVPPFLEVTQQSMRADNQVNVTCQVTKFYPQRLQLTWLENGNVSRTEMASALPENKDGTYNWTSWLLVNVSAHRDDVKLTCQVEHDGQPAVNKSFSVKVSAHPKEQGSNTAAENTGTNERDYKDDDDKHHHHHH
protocol.description: binding ELISA, antigen coated
EC50 for assorted binders
// note: answer is a bare numeric in ng/mL

• QP2561770 (antibody, human IgG4, V domains shown, Human IgG4 heavy constant region and kappa CL) VH: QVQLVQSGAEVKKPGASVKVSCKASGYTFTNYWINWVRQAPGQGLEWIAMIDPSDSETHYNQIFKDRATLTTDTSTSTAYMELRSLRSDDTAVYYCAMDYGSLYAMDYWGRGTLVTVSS VL: DIVLTQSPDSLAVSLGERATINCRASQSVRSSGYNWIFWYQQKPGQPPKLLIYLASNRDSGVPDRFSGSGSGTDFTLTISSLQAEDVAVYYCQESRELPTFGQGTKLEIK = 1.68

Please report the recorded EC50 for QP2561586 (antibody, human IgG4, V domains shown, Human IgG4 heavy constant region and kappa CL) VH: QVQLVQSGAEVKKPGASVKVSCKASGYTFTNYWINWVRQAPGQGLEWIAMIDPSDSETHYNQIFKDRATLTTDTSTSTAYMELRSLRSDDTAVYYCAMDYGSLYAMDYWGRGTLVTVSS VL: DIVLTQSPDSLAVSLGERATINCRASKSVSSSGYNYIFWYQQKPGQPPKLLIYLASNLDSGVPDRFSGSGSGTDFTLTISSLQAEDVAVYYCQESRELPTFGQGTKLEIK . 1.03

Please give the result for QP256253 (antibody, human IgG4, V domains shown, also called humanized antibody QP256253; QP163164 humanized clone) VH: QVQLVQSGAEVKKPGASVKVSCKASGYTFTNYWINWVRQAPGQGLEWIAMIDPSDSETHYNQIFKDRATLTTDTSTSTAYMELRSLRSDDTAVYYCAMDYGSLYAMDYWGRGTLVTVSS VL: DIVLTQSPDSLAVSLGERATINCRASKSVSSSGYNYIFWYQQKPGQPPKLLIYLASNLDSGVPDRFSGSGSGTDFTLTISSLQAEDVAVYYCQHSRELPTFGQGTKLEIK too. 1.51
